Recorded ALP, one value per entry.
# Test system: Male Sprague-Dawley Rats
# TEST DETAILS: Serum clinical chemistries in rats fed compound as dietary admixture
# Format: in vivo
# CONDITION DETAILS: % of control; alkaline phosphatase in rat serum; diet 0.3%, 4 days; N = 5

Example compounds with recorded ALP:
[[record]]
compound = "CC(C)=CCCC(C)CCSc1cc(C(C)(C)C)c(O)c(C(C)(C)C)c1 (stereo not shown)"
study_target = "Male Sprague-Dawley Rats"
result = "125%"

[[record]]
compound = "CC(CCCC(C)(C)O)CCSc1cc(C(C)(C)C)c(O)c(C(C)(C)C)c1 (stereo not shown)"
study_target = "Male Sprague-Dawley Rats"
result = "137%"

[[record]]
compound = "CC(C)=CCC[C@H](C)CCSc1ccc(O)c(C(C)(C)C)c1"
study_target = "Male Sprague-Dawley Rats"
result = "111%"


Turning to the following compound.
Enquiry: Need ALP of CC(C)=CCC[C@H](C)CCOc1cc(C(C)(C)C)c(O)cc1C(C)(C)C , thanks.
Return: 118%
